Taken from patent KR20050021629A.

Test system: human colon cancer cell line HCT15 (인간 결장암 세포주 (HCT15))
Assay: SRB cytotoxicity test, human colon cancer cell line HCT15
Assay type: cell-based
Conditions: HCT 15, SRB assay, 48 h incubation, read-out: ED50 (the source's name)
measurementLabel: IC50 (µg/mL)

[[record]]
compound = "Cc1cccc2nc3c(n12)C(=O)C(=O)c1cccnc1-3 [실시예 2, 7-메틸-1,6b,11-트리아자-벤조[3,2-a]플루오렌-5,6-디온]"
measuredtarget = "human colon cancer cell line HCT15 (인간 결장암 세포주 (HCT15))"
scaleunit = "µg/mL"
val = 0.71

[[record]]
compound = "O=C1C(=O)c2c(nc3ccccn23)-c2cnncc21 [실시예 6, 2,3,6b,11-테트라아자-벤조[a]플루오렌-5,6-디온]"
measuredtarget = "human colon cancer cell line HCT15 (인간 결장암 세포주 (HCT15))"
scaleunit = "µg/mL"
val = 0.1

[[record]]
compound = "O=C1C(=O)c2c(nc3ncccn23)-c2ncccc21 [실시예 4, 1,6b,10,11-테트라아자-벤조[a]플루오렌-5,6-디온]"
measuredtarget = "human colon cancer cell line HCT15 (인간 결장암 세포주 (HCT15))"
scaleunit = "µg/mL"
val = 0.077

[[record]]
compound = "O=C1C(=O)c2c(nc3ccc(Cl)cn23)-c2ncccc21 [실시예 3, 8-클로로-1,6b,11-트리아자-벤조[3,2-a]플루오렌-5,6-디온]"
measuredtarget = "human colon cancer cell line HCT15 (인간 결장암 세포주 (HCT15))"
scaleunit = "µg/mL"
val = 0.99

[[record]]
compound = "Cc1cccn2c3c(nc12)-c1ncccc1C(=O)C3=O [실시예 1, 10-메틸-1,6b,11-트리아자-벤조[3,2-a]플루오렌-5,6-디온]"
measuredtarget = "human colon cancer cell line HCT15 (인간 결장암 세포주 (HCT15))"
scaleunit = "µg/mL"
val = 0.044

[[record]]
compound = "O=C1C(=O)c2c(nc3cnccn23)-c2ncccc21 [실시예 5, 1,6b,9,11-테트라아자-벤조[a]플루오렌-5,6-디온]"
measuredtarget = "human colon cancer cell line HCT15 (인간 결장암 세포주 (HCT15))"
scaleunit = "µg/mL"
val = 0.047

[[record]]
compound = "Cc1ccc2nc3c(n2c1)C(=O)C(=O)c1cnncc1-3 [실시예 7, 8-메틸-2,3,6b,11-테트라아자-벤조[a]플루오렌-5,6-디온]"
measuredtarget = "human colon cancer cell line HCT15 (인간 결장암 세포주 (HCT15))"
scaleunit = "µg/mL"
val = 0.92

